Values were extracted from patent US20120046292A1.

target: human DGAT1 (hDGAT1) (Homo sapiens, UniProt O75907)
Sequence (O75907 whole entry): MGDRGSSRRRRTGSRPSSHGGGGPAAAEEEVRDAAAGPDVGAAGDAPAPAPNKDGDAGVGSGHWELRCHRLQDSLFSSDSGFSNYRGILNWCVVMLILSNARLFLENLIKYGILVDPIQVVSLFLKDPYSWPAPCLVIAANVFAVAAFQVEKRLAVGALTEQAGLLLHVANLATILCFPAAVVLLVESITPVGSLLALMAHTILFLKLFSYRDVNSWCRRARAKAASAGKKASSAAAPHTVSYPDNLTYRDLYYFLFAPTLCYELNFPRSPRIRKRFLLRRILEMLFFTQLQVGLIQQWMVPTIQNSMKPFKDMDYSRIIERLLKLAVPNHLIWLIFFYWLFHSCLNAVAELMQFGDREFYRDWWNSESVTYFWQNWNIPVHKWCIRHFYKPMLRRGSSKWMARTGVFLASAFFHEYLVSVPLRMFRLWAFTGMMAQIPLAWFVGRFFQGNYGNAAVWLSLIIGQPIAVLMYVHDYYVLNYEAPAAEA
MEASURED METRIC: IC50 (nM)

Please review the following examples before continuing.
In [3]: df
Out[3]:
                                   molecule  measured_metric  value_reported
0  CCOc1ccc(C(=O)NCCNC(=O)c2ccc(O[C@H]3CC[C@@H](C(=O)O)CC3)nc2)cc1Cl             IC50              14
1  O=C(NCCNC(=O)c1cc2cc(OC(F)(F)F)ccc2[nH]1)c1ccc(O[C@H]2CC[C@@H](C(=O)O)CC2)cc1             IC50             4.2
2  O=C(O)CC1CCN(c2c(F)cc(C(=O)NCCNC(=O)c3sc4ccccc4c3Cl)cc2F)CC1             IC50              32
3  O=C(NCCNC(=O)c1ccc(O[C@H]2CC[C@@H](C(=O)O)CC2)cc1)Nc1ccccc1Cl             IC50              14
4  Cc1cc(C(=O)NCCNC(=O)c2ccc(O[C@H]3CC[C@@H](C(=O)O)CC3)cc2)ccc1Cl             IC50             5.3
5  O=C(NCCNC(=O)c1ccc2ccccc2c1)c1ccc(O[C@H]2CC[C@@H](C(=O)O)CC2)cc1             IC50             5.2

(1) Cc1cc(O[C@H]2CC[C@@H](C(=O)O)CC2)ccc1C(=O)NCCNC(=O)c1ccc(C(F)(F)F)cc1
(2) O=C(NCCNC(=O)c1ccc(O[C@H]2CC[C@@H](C(=O)O)CC2)cc1)c1ccc(Oc2ccc(F)cc2)cc1
Exercise: Could you kindly indicate whether 1 or 2 has the higher IC50 value? Give the chosen item's label as your response.
Solution: 1
(1: 8.1 nM, 2: 0.4 nM)

(I) O=C(O)CC1CCC(c2ccc(C(=O)NCCNC(=O)c3ccc(Cl)cc3)cc2)CC1 (centres unmarked)
(II) O=C(O)C[C@H]1CC[C@@H](Oc2cc(F)c(C(=O)NCCNC(=O)c3ccc4ccccc4c3)cc2F)CC1
(III) O=C(NCCNC(=O)c1ccc(C2CC2)cc1)c1ccc(O[C@H]2CC[C@@H](C(=O)O)CC2)cc1
Exercise: Given 3 molecules, produce a descending ranking by IC50. Use the labels to give the requested order.
Solution: I, III, II
(I: 20 nM, III: 2.3 nM, II: 1.6 nM)
